Each entry below carries its reported EC50.
study_system: T1, c-Met (HGF receptor) expressed on cells (human, UniProt P08581 25-1390)
T1 construct: whole, on cells; Endogenous c-Met on tumour cell lines and on human umbilical vein endothelial cells
T1 sequence (P08581 25-1390): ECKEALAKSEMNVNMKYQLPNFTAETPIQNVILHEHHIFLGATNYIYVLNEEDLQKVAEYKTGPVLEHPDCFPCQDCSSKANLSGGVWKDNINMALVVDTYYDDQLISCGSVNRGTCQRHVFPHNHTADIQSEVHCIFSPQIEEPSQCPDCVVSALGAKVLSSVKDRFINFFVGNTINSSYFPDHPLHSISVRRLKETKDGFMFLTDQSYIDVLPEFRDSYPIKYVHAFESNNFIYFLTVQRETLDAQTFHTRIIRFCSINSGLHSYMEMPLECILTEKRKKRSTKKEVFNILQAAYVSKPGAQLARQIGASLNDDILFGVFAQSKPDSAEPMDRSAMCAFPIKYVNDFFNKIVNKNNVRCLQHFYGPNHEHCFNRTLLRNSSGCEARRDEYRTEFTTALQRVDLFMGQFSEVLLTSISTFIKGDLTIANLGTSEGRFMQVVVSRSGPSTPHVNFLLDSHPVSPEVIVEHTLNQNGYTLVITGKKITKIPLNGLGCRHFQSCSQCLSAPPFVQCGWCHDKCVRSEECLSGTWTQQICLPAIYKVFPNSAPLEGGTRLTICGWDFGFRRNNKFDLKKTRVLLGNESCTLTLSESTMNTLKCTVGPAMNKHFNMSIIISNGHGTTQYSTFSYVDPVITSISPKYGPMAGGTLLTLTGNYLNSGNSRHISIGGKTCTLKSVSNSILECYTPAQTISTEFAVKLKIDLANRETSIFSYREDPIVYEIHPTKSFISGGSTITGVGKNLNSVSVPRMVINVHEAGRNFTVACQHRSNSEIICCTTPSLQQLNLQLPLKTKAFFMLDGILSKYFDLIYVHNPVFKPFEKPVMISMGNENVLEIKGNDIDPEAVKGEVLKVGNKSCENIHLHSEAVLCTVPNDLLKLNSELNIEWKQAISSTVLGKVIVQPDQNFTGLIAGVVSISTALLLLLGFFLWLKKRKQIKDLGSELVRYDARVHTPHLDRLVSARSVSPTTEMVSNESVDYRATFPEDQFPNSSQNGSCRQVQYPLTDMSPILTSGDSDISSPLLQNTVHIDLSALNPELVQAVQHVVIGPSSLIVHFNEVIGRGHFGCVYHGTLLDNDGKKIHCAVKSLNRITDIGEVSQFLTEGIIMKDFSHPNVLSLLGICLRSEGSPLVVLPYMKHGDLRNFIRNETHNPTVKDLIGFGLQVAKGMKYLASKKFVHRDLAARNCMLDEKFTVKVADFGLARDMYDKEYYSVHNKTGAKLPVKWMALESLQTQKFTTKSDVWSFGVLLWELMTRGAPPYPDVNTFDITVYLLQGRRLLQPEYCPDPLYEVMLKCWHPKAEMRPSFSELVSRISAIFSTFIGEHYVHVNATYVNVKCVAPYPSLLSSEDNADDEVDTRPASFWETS
assay_summary: flow cytometry, antibody titration on SK-O-V3 ovarian cancer cells, PE anti-human IgG
All answers are understood in nM, so give the number only.

A1-9 anti-c-Met antibody (antibody, V domains shown, Detected with anti-human IgG (gamma-chain specific)) VH: QVQLQESGPGLVKPSQTLSLTCTVSGGSISSGGYYWSWIRQHPGKGLEWIGEISHSGSTNYNPSLKSRVTISVDTSKNQFSLKLSSVTAADTAVYYCARGRDGYYLDQWGQGTLVTVSS VL: LPVLTQPASVSGSPGQSITISCTGTSSDVGGYNYVSWYQQHPGKAPKLMIYNVSDRPSGVSTRFSGSKSGNTASLTISGLQAEDEADYYCSSFRSSSALVVFGGGTKLTVL = 0.076
A1-6 anti-c-Met antibody (antibody, V domains shown, Detected with anti-human IgG (gamma-chain specific)) VH: QVQLQESGPGLVKPSQTLSLTCTVSGGSISSGGYYWSWIRQHPGKGLEWIGEITHSGSTNYNPSLKSRVTISVDTSKNQFSLKLSSVTAADTAVYYCARGRDGYDIDAWGQGTLVTVSS VL: LPVLTQPASVSGSPGQSITISCTGTSWDVGGYPYVSWYQQHPGKAPKLMIYDVSDRPSGVSTRFSGSKSGNTASLTISGLQAEDEADYYCSSYRSVSALVVFGGGTKLTVL = 0.053
A1-32 anti-c-Met antibody (antibody, V domains shown, Detected with anti-human IgG (gamma-chain specific)) VH: QVQLQESGPGLVKPSQTLSLTCTVSGGSISSGGYYWSWIRQHPGKGLEWIGESTHSGSTNYNPSLDSRVTISVDTSKNQFSLKLSSVTAADTAVYYCARGRDGYYLDQWGQGTLVTVSS VL: LPVLTQPASVSGSPGQSITISCTGTSFDVGGYPYVSWYQQHPGKAPKLMIYDVSDRPSGVSTRFSGSKSGNTASLTISGLQAEDEADYYCSSFRSSAALVVFGGGTKLTVL = 0.109
A1-2 anti-c-Met antibody (antibody, V domains shown, Detected with anti-human IgG (gamma-chain specific)) VH: QVQLQESGPGLVKPSQTLSLTCTVSGGSISSGGYYWSWIRQHPGKGLEWIGESTHSGSTNYNPSLKSRVTISVDTSKNQFSLKLSSVTAADTAVYYCARGRDGYDFDAWGQGTLVTVSS VL: LPVLTQPASVSGSPGQSITISCTGTSFDVGGYNYVSWYQQHPGKAPKLMIYDVSDRPSGVSTRFSGSKSGNTASLTISGLQAEDEADYYCSSFRSSSALVVFGGGTKLTVL = 0.223
A1-4 anti-c-Met antibody (antibody, V domains shown, Detected with anti-human IgG (gamma-chain specific)) VH: QVQLQESGPGLVKPSQTLSLTCTVSGGSISSGGYYWSWIRQHPGKGLEWIGESSHSGSTNYNPSLKSRVTISVDTSKNQFSLKLSSVTAADTAVYYCARGRDGYYFDAWGQGTLVTVSS VL: LPVLTQPASVSGSPGQSITISCTGTSSDVGGYPYVSWYQQHPGKAPKLMIYVVSDRPSGVSTRFSGSKSGNTASLTISGLQAEDEADYYCSSYRSSSALVVFGGGTQLTVL = 0.054

Find the recorded EC50 belonging to A1-24 anti-c-Met antibody (antibody, V domains shown, Detected with anti-human IgG (gamma-chain specific)) VH: QVQLQESGPGLVKPSQTLSLTCTVSGGSISSGGYYWSWIRQHPGKGLEWIGESTHSGSTNYNPSLESRVTISVDTSKNQFSLKLSSVTAADTAVYYCARGRDSYDFDAWGQGTLVTVSS VL: LPVLTQPASVSGSPGQSITISCTGTSFDVGGYNYVSWYQQHPGKAPKLMIYDVSDRPSGVSTRFSGSKSGNTASLTISGLQAEDEADYYCSSFRSSAALVVFGGGTKLTVL and report it.
0.135

Ref: patent US20190359719A1
